Sourced from PubChem BioAssay (NCI)

# Test system: MDA-MB-468 breast
# PROCEDURE DETAILS: NCI-60 one-dose screen, 48 h (100 = growth as untreated, 0 = no growth, -100 = all killed)
# RECORDED CONDITIONS: 10 µM unless noted
This is part of a sample that, as a whole, favours compounds with a hit. Of some 83,000 tested, about 20% had one in any assay.
Give t when the value for growth is at least 70%. Give f when it is less.

- COMPOUND: "COc1ccc(C2CC(c3cccc(Nc4ccnc5cc(Cl)ccc45)c3)=NN2C=O)cc1 (stereo not given)"
  TEST SYSTEM: "MDA-MB-468 breast"
  LABEL VALUE: "f"
- COMPOUND: "CC(C)(C)c1ccc(CCO)cc1"
  TEST SYSTEM: "MDA-MB-468 breast"
  LABEL VALUE: "t"
- COMPOUND: "Brc1ccc(-c2cnc3nonc3n2)cc1"
  TEST SYSTEM: "MDA-MB-468 breast"
  LABEL VALUE: "f"
- COMPOUND: "C/C(=N\\NC(=O)CSc1nc2ccccc2c(=O)n1Cc1ccc(S(N)(=O)=O)cc1)c1ccc(F)cc1"
  TEST SYSTEM: "MDA-MB-468 breast"
  LABEL VALUE: "t"
- COMPOUND: "CCOC(=O)c1sc(-c2ccc(OS(=O)(=O)c3ccc(C(C)(C)C)cc3)c(C=O)c2)nc1C"
  TEST SYSTEM: "MDA-MB-468 breast"
  LABEL VALUE: "f"

Given the entry "Cc1ccc(-n2cc(-c3ccccc3)c3c2N=NN2CCN=C32)cc1" , answer whether its growth meets or surpasses 70%. t

Given the entry "Fc1ccc2nc(-c3cc(-c4ccc5c(c4)OCO5)n[nH]3)[nH]c2c1" , answer whether its growth meets or surpasses 70%. f

Given the entry "COc1ccc(C(=O)/C=C/c2cc(-c3cc(OC)c(OC)c(OC)c3)n[nH]2)cc1" , answer whether its growth meets or surpasses 70%. f

Given the entry "CC/C(=C(/c1ccc(Cl)cc1)c1ccc(OCCN2CCCC2)cc1)c1ccccc1" , answer whether its growth meets or surpasses 70%. f

----------
# System: MDA-MB-468 breast
# PROCEDURE DETAILS: NCI-60 one-dose screen, 48 h (100 = growth as untreated, 0 = no growth, -100 = all killed)
# RECORDED CONDITIONS: 10 µM unless noted
About 83,000 compounds went through this panel and 20% of them were active in at least one assay; those are over-represented in the sample as a whole.
A collection of molecules and their measured growth
Answer in %, number only, no unit symbol.

Solved entries:
- MOLECULE: "CCCn1cc2c(=O)nc3sc(Cc4ccccc4)c(C)n3c2n1"
  OUTPUT UNIT: "%"
  REPORTED VALUE: 111
- MOLECULE: "C=CC(C)(O)CC/C=C(\\CO)C(=O)OC1C(C)OC(O[C@](C)(C=C)CC/C=C(\\CO)C(=O)O[C@H]2C[C@@]3(C(=O)OC4OC(CO)C(O)C(O)C4OC4OC(C)C(OC5OC(CO)C(O)C5O)C(OC5OC(CO)C(O)C(O)C5O)C4O)C(CC2(C)C)C2=CCC4[C@@]5(C)CC[C@H](OC6OC(COC7OC(C)C(O)C(O)C7OC7OCC(O)C(O)C7O)C(O)C(O)C6NC(C)=O)C(C)(C)C5CC[C@@]4(C)[C@]2(C)C[C@H]3O)C(O)C1O (stereo partly drawn)"
  OUTPUT UNIT: "%"
  REPORTED VALUE: 19.9

Can you share its growth? I mean this molecule: "NNC(=O)Cc1ccccc1" 92.3

Can you share its growth? I mean this molecule: "O=C(Nc1cccc(Cl)c1)c1ccc(Cl)cc1Cl" 96.9

Can you share its growth? I mean this molecule: "O=C(C(=O)N1CCOCC1)c1cn(CCCn2cc(C(=O)C(=O)N3CCOCC3)c3ccccc32)c2ccccc12" 109

Can you share its growth? I mean this molecule: CC1Cc2cc(F)ccc2-n2cccc21 (stereo not drawn) 136

Can you share its growth? I mean this molecule: "O=C(O)c1cc(N=Nc2ccc(-c3ccc(N=Nc4c(S(=O)(=O)O)cc5ccc(Nc6ccccc6)cc5c4O)cc3)cc2)ccc1O" 124

Can you share its growth? I mean this molecule: "O=c1c2sc3ncccc3c2nnn1-c1ccccc1" 104
